method.summary: Tissue exposure measurements in rats (plasma and brain)
Type: in vivo
reported.conditions: rat, 10 mg·kg^−1 oral gavage; mean ± SD
Just so you know, the groups by Brain Cmax go like this: class A (below 20 ng/mL), class B (20 ng/mL to below 100 ng/mL), class C (100 ng/mL or more)

Some solved entries appear below for comparison.
| compound | label.class |
| --- | --- |
| O=C(c1csc(-c2cn[nH]c2)c1)N1C2CCC1CC(O)(c1ccccc1)C2 (stereo not drawn) | class B |
| O=C(c1csc(-c2cn[nH]c2)c1)N1C2CCC1CC(O)(c1cnccn1)C2 (stereo not drawn) | class A |
| O=C(c1csc(-c2cn[nH]c2)c1)N1C2CCC1CC(O)(c1ncccn1)C2 (stereo not drawn) | class C |

Exercise: Could you place N#CC1(c2ncccn2)CC2CCC(C1)N2C(=O)c1csc(-c2cn[nH]c2)c1 (stereo not drawn) in its proper category? Many thanks.
Solution: class A

Exercise: Could you place O=C(c1csc(-c2cn[nH]c2)c1)N1C2CCC1CC(O)(c1ccccn1)C2 (stereo not drawn) in its proper category? Many thanks.
Solution: class B
